# credit: ChEMBL document CHEMBL3991601

Biological target: 5'-AMP-activated protein kinase catalytic subunit alpha-1 (Homo sapiens, UniProt Q13131); further: in the data inactive means no Kd found up to 30 µM
Sequence (Q13131 whole entry): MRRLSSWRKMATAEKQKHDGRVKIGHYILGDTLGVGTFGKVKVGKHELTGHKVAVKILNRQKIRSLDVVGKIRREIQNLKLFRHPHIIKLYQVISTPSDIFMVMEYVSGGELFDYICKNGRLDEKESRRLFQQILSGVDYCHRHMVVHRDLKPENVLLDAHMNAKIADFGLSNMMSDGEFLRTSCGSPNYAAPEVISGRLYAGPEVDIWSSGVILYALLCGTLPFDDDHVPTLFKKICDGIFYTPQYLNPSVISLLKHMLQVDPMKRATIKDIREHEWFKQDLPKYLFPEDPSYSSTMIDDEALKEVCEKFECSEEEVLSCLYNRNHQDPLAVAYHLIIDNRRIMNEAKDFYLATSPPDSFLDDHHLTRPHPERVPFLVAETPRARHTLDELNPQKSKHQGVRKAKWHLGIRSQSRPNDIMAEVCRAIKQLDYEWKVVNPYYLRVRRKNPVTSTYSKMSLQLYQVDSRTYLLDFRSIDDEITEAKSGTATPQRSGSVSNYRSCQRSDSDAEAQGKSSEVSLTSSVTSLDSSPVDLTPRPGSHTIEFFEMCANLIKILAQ
Where a name gives a salt, the structure may show the parent alone. Activity calls are given as the source filed them.
# Kd per record follows

compound: COc1ncc(-c2ccc3nccc(-c4ccnnc4)c3c2)cc1NS(=O)(=O)c1ccc(F)cc1F
Kd: > 30 µM (inactive)
--
compound: COc1c(OCCCN2CCOCC2)ccc2c1N=C(NC(=O)c1cnc(N)nc1)N1CCN=C21
Kd: > 30 µM (inactive)
--
compound: N#CC1(c2ccc(NC(=O)c3cccnc3NCc3ccncc3)cc2)CCCC1
Kd: > 30 µM (inactive)
--
compound: Cn1cc(-c2cnn3c(N)c(Br)c([C@@H]4CCCNC4)nc23)cn1
Kd: > 30 µM (inactive)
--
compound: COc1cc2c(Nc3ccc(Cl)c(Cl)c3F)ncnc2cc1OC[C@@H]1C[C@@H]2CN(C)C[C@@H]2C1
Kd: > 30 µM (inactive)
--
compound: CO[C@H]1C[C@@H]2CC[C@@H](C)[C@@](O)(O2)C(=O)C(=O)N2CCCC[C@H]2C(=O)O[C@H]([C@H](C)C[C@@H]2CC[C@@H](O)[C@H](OC)C2)CC(=O)[C@H](C)/C=C(\C)[C@@H](O)[C@@H](OC)C(=O)[C@H](C)C[C@H](C)/C=C/C=C/C=C/1C
Kd: > 30 µM (inactive)
--
compound: CCn1c(C(=O)N(C2CC2)C2CC2)cc2c3c(ncn3C)c(Nc3cc(C)n(C)n3)nc21
Kd: > 30 µM (inactive)
--
compound: C=CC(=O)Nc1cc2c(Nc3ccc(F)c(Cl)c3)ncnc2cc1C#CC(C)(C)N1CCN(C)CC1 [AV-412 FREE BASE]
Kd: > 30 µM (inactive)
--
compound: CCNC(=O)C#Cc1ccc2c(c1)NC(=O)/C2=C(\Nc1ccc(CN(C)C)cc1)c1ccccc1
Kd: 3.05 µM (active)
--
compound: C=CC(=O)N1CCC[C@H](n2c(=O)n(-c3ccc(Oc4ccccc4)cc3)c3c(N)ncnc32)C1
Kd: > 30 µM (inactive)
--
compound: CCOc1cc2ncc(C#N)c(Nc3ccc(F)c(Cl)c3)c2cc1NC(=O)/C=C/CN(C)C
Kd: > 30 µM (inactive)
--
compound: Cn1cc(-c2cnc3ccc4ccc(CS(=O)(=O)NCc5ccccn5)cc4c(=O)c3c2)cn1
Kd: > 30 µM (inactive)
--
compound: O=C(Nc1c[nH]nc1-c1nc2cc(CN3CCOCC3)ccc2[nH]1)NC1CC1
Kd: 0.05 µM (active)
--
compound: C[C@@H](Oc1cc(C(=O)Nc2ccc(C(=O)N3CCN(C)CC3)cc2)nnc1N)c1c(Cl)ccc(F)c1Cl
Kd: > 30 µM (inactive)
--
compound: Cc1nc(Nc2n[nH]c3c2CN(C(=O)N[C@H](CN(C)C)c2ccccc2)C3(C)C)c2sccc2n1
Kd: 0.006 µM (active)
--
compound: Cc1cc(C(=O)NOCCO)c(Nc2ccc(I)cc2F)n(C)c1=O
Kd: > 30 µM (inactive)
--
compound: CCS(=O)(=O)N1CCN(c2ccc(Nc3ncc(C(N)=O)c(NC4CC4)n3)cc2)CC1 [Cerdulatinib Hydrochloride]
Kd: 10.8 µM (active)
--
compound: COCC(=O)NC/C=C/c1ccc2ncnc(Nc3ccc(Oc4ccc(C)nc4)c(C)c3)c2c1
Kd: > 30 µM (inactive)
--
compound: Cc1nc2cc(-c3nn(C(C)C)c4ncnc(N)c34)ccc2o1
Kd: > 30 µM (inactive)
--
compound: C[C@@H](N)c1ccc(C(=O)Nc2ccnc3[nH]ccc23)cc1
Kd: > 30 µM (inactive)
--
compound: COc1cc([C@@H]2c3cc4c(cc3[C@H](O)[C@H]3COC(=O)[C@@H]23)OCO4)cc(OC)c1OC
Kd: > 30 µM (inactive)
--
compound: COc1cc2ncnc(Oc3cccc(NC(=O)Nc4cc(C(C)(C)C(F)(F)F)on4)c3)c2cc1OC
Kd: > 30 µM (inactive)
--
compound: CO[C@H]1C[C@@H]2CC[C@@H](C)[C@@](O)(O2)C(=O)C(=O)N2CCCC[C@H]2C(=O)O[C@H]([C@H](C)C[C@@H]2CC[C@@H](OC(=O)C(C)(CO)CO)[C@H](OC)C2)CC(=O)[C@H](C)/C=C(\C)[C@@H](O)[C@@H](OC)C(=O)[C@H](C)C[C@H](C)/C=C/C=C/C=C/1C
Kd: > 30 µM (inactive)
--
compound: CCn1cc(-c2ccnc3[nH]c(-c4cccc(CN(C)C)c4)cc23)c(-c2ccc(NC(=O)N(C)C)cc2)n1
Kd: > 30 µM (inactive)
